# Target Under Test: Cytochrome P450 3A4 (Homo sapiens)
# Assay Notes: qHTS Assay for Activators of Cytochrome P450 3A4 (AID 885); further: nearly all actives have a fitted effect of over 65% in size
# Details: recombinant CYP3A4, Luciferin-PPXE luminescence, 60 min; series mostly up to 57.1 µM
Activity calls are given as the source filed them. The call rests on the fitted dose curve; in most records, active means well fitted activation curve with a large enough effect; inconclusive means small, poorly fitted or top-dose-only effect; inactive means no such curve, though single readings can be large or run the other way.
Labels: active, inactive

Molecule: CCN(CC)CCCC(C)n1c(-c2ccccc2)nc2c(NCc3ccccc3)nc(C)nc21 (centres undefined)
Group: inactive

Molecule: CCN(CC)CCCC(C)n1c(-c2ccccc2)nc2c(NCCOC)nc(C)nc21 (centres undefined)
Group: inactive

Molecule: COCCn1c(=O)c(-c2ccc(Cl)cc2)nc2cnc(OC)nc21
Group: inactive

Molecule: COc1ccc(CNc2ccnc(-c3ccccc3C(F)(F)F)n2)c(OC)c1
Group: inactive

Molecule: CN(C)c1ccnc(-c2cccc(NS(C)(=O)=O)c2)n1
Group: inactive

Molecule: O=C(c1csnn1)N1CCC2(CC1)CN(c1ccccn1)C2
Group: active

Molecule: CCCn1c(-c2ccc(F)cc2)nc2c(N(C)CCN(C)C)nc(C)nc21
Group: inactive

Molecule: c1ccc(-c2cccc(N3CC[C@@]4(CCCNC4)C3)c2)cc1
Group: inactive

Molecule: COc1ncc2nc(-c3cccc(C#N)c3)c(=O)n(CCC#N)c2n1
Group: inactive

Molecule: O=c1c(-c2ccc(F)cc2)nc2cnc(N3CCNCC3)nc2n1Cc1ccc(F)cc1
Group: inactive

Molecule: O=C(Oc1ccccc1)N1CCC2(CC1)CN(c1ccccc1)C2
Group: active

Molecule: Cc1nc(NCc2ccccc2)c2nc(-c3ccccc3)n(CCCN3CCCCC3C)c2n1 (centres undefined)
Group: inactive

Molecule: N#Cc1cccc(NC(=O)N2CC[C@@]3(CCCN(C(=O)c4ccncc4)C3)C2)c1
Group: inactive

Molecule: COc1ccc(Oc2ncc3ncc(=O)n(C[C@H]4CCCO4)c3n2)cc1
Group: inactive

Molecule: CN(C)c1ccc(-c2nccc(NCCN3CCOCC3)n2)cc1
Group: inactive

Molecule: CS(=O)(=O)N1CCC2(CC1)CN(C(=O)Nc1cccc(C#N)c1)C2
Group: inactive

Molecule: CN(C)c1ccc(-c2cc(Nc3ccc(F)cc3)ncn2)cc1
Group: inactive

Molecule: COc1ccc2[nH]cc(CCNc3cc(-c4ccccc4C(F)(F)F)ncn3)c2c1
Group: inactive

Molecule: Cc1nc(NCc2ccccc2)c2nc(-c3ccccc3)n(CCN(C)C)c2n1
Group: inactive

Molecule: CNc1nc(-c2ccccc2Cl)nc2ccccc12
Group: inactive

Molecule: CN(C)c1ncc2ncc(=O)n(Cc3ccc(F)cc3)c2n1
Group: inactive

Molecule: COC(=O)c1c(-c2cc(OC)c(OC)c(OC)c2)c2ccc(OCc3ccccn3)cc2c(=O)n1-c1ccc(N)cc1
Group: inactive

Molecule: COCCn1c(=O)c(C)nc2cnc(Oc3ccc(OC)cc3)nc21
Group: inactive

Molecule: O=S(=O)(c1ccccc1)N1CCC[C@@]2(CCN(c3ccccc3)C2)C1
Group: inactive

Molecule: COc1ccccc1CNc1nc(-c2c(C)noc2C)nc2ccccc12
Group: inactive

Molecule: CN(C)c1ccc(-c2cc(-n3ccnc3)ncn2)cc1
Group: inactive

Molecule: COc1ccccc1CNc1ncncc1-c1cccc(C#N)c1
Group: inactive

Molecule: CN1CCN(c2ncncc2-c2ccc(C(=O)N(C)C)cc2)CC1
Group: inactive

Molecule: CCCn1c(-c2ccc(F)cc2)nc2c(NC3CC4CCC(C3)N4C)nc(C)nc21 (centres undefined)
Group: inactive
